- Target under test: wild-type EGFR expressed on cells (human), P00533
- Procedure details: flow cytometry, F98-EGFRwt cells
- Condition: remark: other sources report otherwise
Some binders, each annotated with its measured % positive.
Quick note: give the figure in %, leave out the unit.

Consider the reported % positive for these binders:
Binder | Reading unit | % positive
26B9 (antibody, V domains shown) VH: EVQLVESWGVLVKPGGSLRLSCAASGFIFNNAWMSWVRQAPGKGLEWIGRIKSKSDGGTTDYAAPVKDRFTISRDDSKDTLYLQMNGLKTEDTAVYFCTTAPGGPFDYWGQGTLVTVSS VL: DIVLTQSPLSLPVTPGEPASISCRSSQSLLHRDGFNYLDWFLQKPGQSPQLLIYLASSRASGVPDRFSGSDSGTDFTLKISRVEAEDVGVYYCMQALQTPITFGQGTRLEIK | % | 2.3
32G8 (antibody, V domains shown) VH: EVNLVESGGGLVKPGGSLRLSCEASGFTFSYAWMSWVRQAPGKGLEWVGRIKSITDGGVIDYAAPVRNRCTISRDDSRNTLYLEMHSLKTEDTAVYYCTTIPGNDDFDMWGQGRMVTVSS VL: DIVLTQSPLSLSVTPGEPASISCRSSQSLLYSNGKNYLDWFLHKPGQSPQLLIYLGSNRASGVPDRFSGSGSGIDFILKISRVEAEDVGVYYCMQAQQTPITFGQGTRLEIK | % | 1.6
21E11 (antibody, V domains shown) VH: QVTLKESGPVLVKPTETLTLTCTVSGFSLSNVRMGVSWIRQPPGKALEWFAHIFSSDEKSIRRSLRSRLTLSKDTSKSQVVLTMTNMDPVDTATYYCARDSSNYEGYFDFWGQGTLVTVSSN VL: DMVVTQSPATLSVSPGERATLSCRASQSVGSDLAWYQQPPGQSPRLLIYGASTRATGVPARFSGSGSGTDFTLTITSLESEDFAVYYCQQYNDWPFTFGPGTKVDIK | % | 1.3
21E7 (antibody, V domains shown) VH: QVTLEESGPVLVKPTETLTLTCTVSGFSLSNARMGVSWIRQPPGKAPEWFAHIFSTDEKSLRLSLRSRLTLSKDTSKSQVVLTMTNMDPVDTATYYCARDSSNYEGYFDYWGQGTLVTVSS VL: DVVLTQSPATLSVSPGERATLSCRASQSVNSNLAWYQQNPGQAPRLLIFGSSTRATGIPASFSGSGSGTEFTLTINSLQSEHSAVYYCQQYNDWPFTFGPGTKVDIK | % | 1.3
42G9 (antibody, V domains shown) VH: QVTLKESGPVLLKPTETLTLTCTVSGFSLSNPRMGVSWIRQPPGKALEWFAHIFSTDEKSLKLSLRSRLTLSKDTSKSQVVLTMTNMAPVDSATYYCARDSSNYEGYFDFWGQGTLVTVSS VL: EVVLTQSPATLSVSPGERATLSCRASQSVRSNLAWYQQKSGQAPRLLIYGSTIRATGVPARFSGSGSGTEFTLTISSLQSEDFAVYYCQQYSDWPFTFGPGTKVDIK | % | 1.6

Ask: State its % positive for this binder: 30D8 (antibody, V domains shown) VH: EVQLVESGGGLVKPGGSLRLSCEASGFTFSDAWMSWVRQAPGKGLEWVGRIKSKTDGGTTDYVVPLNGRFIISRDDSRNTLYLQLNNLKTEDTAVYYCTTVPGSYGYWGQGTLVTVSS VL: DIVMTQSPLSLPVTPGEPASISCRSSQSLLHNKRNNYLDWFLQKPGQSPQLLIYLASNRASGVPDRFSGGGSGTDFTLKISRVEAEDVGVYYCMQAQQTPITFGQGTRLEIK
Result: 1.7

Ask: For the binder 46E10 (antibody, V domains shown) VH: QVTLKESGPVLVKPTETLTLTCTVSGFSLSNARMGVSWIRQPPGKALEWLAHIFSTDEKSIRRSLRSRLTLSKDTSKSQVVLIMTNMDPVDTATYYCARDSSNYEGYFDYWGQGTLVTVSS VL: EVVMTQSPPNLSVSPGERATLSCRASQSVTSNFAWYQQRPGQSPRLLLYGASTRATGVPGRFSGSGSGTENILTISSLQSEDFAVYFCQQYKDWPFTFGPGSKVDIK , give its measured % positive value.
Result: 1.6

Ask: State its % positive: 20G5 (antibody, V domains shown) VH: EVQLVESGGDLVKPGGSLRLSCAASGFTFTNAWMSWVRQAPGKGLEWVGRIKSKIDGGTTDYAAPVKGRFIISRDDSKNTLSLQMNSLKTEDTAMYYCTTAPGGPFDYWGQGSLVTVSS VL: DIVLTQSPLSLPVTPGEPASISCRSSQSLLYSDRRNYLDWFLQKPGQSPHLLIYLGSYRASGVPDRFSGSGSGTDFTLKISRVEAEDVGVYYCMQALQIPITFGQGTRLEIK
Result: 12.6

Ask: Supply measured % positive of 29D5 (antibody, V domains shown) VH: QVTLKESGPVLVKPTETLTLTCTVSGFSLSNPRMGVSWLRQPPGKALEWFAHIFSTDEKSYSPSLRGRLTVSKDTSKSQVVLTLTNMDPVDTATYYCARDSSNYEGYFDYWGQGTLVTVSS VL: KIVMTQSPATLSVSPGERATLSCRANQIVSSNLAWYQQKPGQAPRLLVFGTSTRATGIPIRFSGSGSGTEFTLTVSSLQSEDFAVYVCQQYNDWPFTFGPGTKVDIK in your reply.
Result: 1.3

Ask: Please give measured % positive of the following entry: 11F10 (antibody, V domains shown) VH: QVTLKESGPVLVKPIETLTLTCTVCGFSLSNPRMGVSWIRQPPGKALEWLGHIFSSDEKSYRLFLRSRLSISKDTSKSQVVLTMTNMDPVDTATYYCARDSSDYEGYFDYWGQGTLVTVSS VL: EIVMTQSPATLSVSPGERTTLSCRASQSVGSNLAWYQQKPGQAPRLLIYGASTRASGVPARFSGSGSGTEFTLTISSLQSEDFAVYSCQEYNNWPFTFGQGTKVEIK
Result: 1.6
